# MEASURED_ON: UniProt:O00206
# Sequence (O00206 whole entry): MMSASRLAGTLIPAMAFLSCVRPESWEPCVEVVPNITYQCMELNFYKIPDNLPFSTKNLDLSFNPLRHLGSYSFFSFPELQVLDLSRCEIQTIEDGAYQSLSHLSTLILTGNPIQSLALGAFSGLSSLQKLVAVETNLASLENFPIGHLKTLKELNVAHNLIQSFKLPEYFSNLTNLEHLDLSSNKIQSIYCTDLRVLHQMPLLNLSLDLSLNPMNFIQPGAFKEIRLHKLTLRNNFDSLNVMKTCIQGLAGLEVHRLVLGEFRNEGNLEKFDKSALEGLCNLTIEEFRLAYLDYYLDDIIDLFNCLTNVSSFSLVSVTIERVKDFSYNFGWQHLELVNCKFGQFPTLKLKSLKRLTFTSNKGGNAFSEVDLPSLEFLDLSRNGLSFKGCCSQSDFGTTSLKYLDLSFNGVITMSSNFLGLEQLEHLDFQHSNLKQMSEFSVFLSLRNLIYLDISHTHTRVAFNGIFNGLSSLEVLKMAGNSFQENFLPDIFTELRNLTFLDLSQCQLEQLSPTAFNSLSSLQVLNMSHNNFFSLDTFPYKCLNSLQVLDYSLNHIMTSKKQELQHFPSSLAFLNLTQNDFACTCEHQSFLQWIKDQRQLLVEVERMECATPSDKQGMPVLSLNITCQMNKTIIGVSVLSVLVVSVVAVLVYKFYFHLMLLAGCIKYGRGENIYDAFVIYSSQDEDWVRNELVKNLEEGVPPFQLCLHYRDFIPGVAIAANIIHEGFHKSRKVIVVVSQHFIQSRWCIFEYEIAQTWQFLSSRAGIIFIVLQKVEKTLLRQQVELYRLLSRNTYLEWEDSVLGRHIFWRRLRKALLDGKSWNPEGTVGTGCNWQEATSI
# ASSAY: Antagonist activity at TLR4 in human THP1 cells assessed as inhibition of LPS-stimulated IL-6 mRNA level at 10 uM after 16 hrs by RT-PCR method
# Type: cell-based
The source made the active and inactive calls. The calls are words filed in the database; no cut-off is given here.
Can you answer with just one of these options? active, inactive

The examples below pair each entry with its known result.
SMILES	MEASURED_ON	GROUP
CC(=O)[C@]1(OC(=O)c2ccccc2I)CC[C@@]2(O)[C@]1(C)[C@H](OC(=O)c1ccc(O)cc1)C[C@@H]1[C@@]3(C)CC[C@H](OC(=O)c4ccccc4I)CC3=CC[C@]12O	UniProt:O00206	inactive
CC(=O)[C@]1(O)CC[C@@]2(O)[C@]1(C)[C@H](OC(=O)c1ccccc1)C[C@@H]1[C@@]3(C)CC[C@H](O)CC3=CC[C@]12O	UniProt:O00206	inactive
CC(=O)O[C@H]1CC[C@@]2(C)C(=CC[C@]3(O)[C@@H]2C[C@@H](OC(=O)c2ccc(O)cc2)[C@@]2(C)[C@]3(O)CC[C@@]2(O)C(C)=O)C1	UniProt:O00206	inactive
CC(=O)[C@]1(O)CC[C@@]2(O)[C@]1(C)[C@H](OC(=O)c1ccc(O)cc1)C[C@@H]1[C@@]3(C)CC[C@H](OC(=O)CCl)CC3=CC[C@]12O	UniProt:O00206	active
CC(=O)[C@]1(O)CC[C@@]2(O)[C@]1(C)[C@H](OC(=O)/C=C(\C)C(C)C)C[C@@H]1[C@@]3(C)CC[C@H](OC(=O)c4ccc(Cl)nc4)CC3=CC[C@]12O	UniProt:O00206	inactive
CC(=O)[C@]1(O)CC[C@@]2(O)[C@]1(C)[C@H](OC(=O)/C=C(\C)C(C)C)C[C@@H]1[C@@]3(C)CC[C@H](OC(=O)/C=C/c4ccccc4)CC3=CC[C@]12O	UniProt:O00206	inactive

Now for a further compound.
Outcome? C[C@@H](OC(=O)c1ccccc1O)[C@]1(O)CC[C@@]2(O)[C@]1(C)[C@H](OC(=O)/C=C/c1ccccc1)C[C@@H]1[C@@]3(C)CC[C@H](O)CC3=CC[C@]12O
active
